Below: a set of entries, each annotated with reported Cell Calcium Efficacy (%).
TEST TARGET: ADORA3 (Homo sapiens (Human))
Sequence (P0DMS8 whole entry): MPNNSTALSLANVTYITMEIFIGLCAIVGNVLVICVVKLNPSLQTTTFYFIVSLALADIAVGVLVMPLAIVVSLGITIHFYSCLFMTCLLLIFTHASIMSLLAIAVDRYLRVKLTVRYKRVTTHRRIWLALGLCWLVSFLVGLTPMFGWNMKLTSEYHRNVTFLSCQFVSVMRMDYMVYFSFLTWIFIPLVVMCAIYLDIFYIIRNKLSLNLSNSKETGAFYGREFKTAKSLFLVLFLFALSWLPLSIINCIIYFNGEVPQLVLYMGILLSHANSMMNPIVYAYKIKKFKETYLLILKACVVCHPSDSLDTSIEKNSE
METHOD: Intracellular calcium release assay (FLIPR)
Format: cell-based
MEASUREMENT PARAMETERS: percentage of the response to NECA
QUANTITY: Cell Calcium Efficacy (%)

* O[C@@H]1[C@H](O)[C@@H]2C[C@@H]2[C@H]1n1cnc2c(NCc3cc(F)ccc3F)cc(Cl)nc21 | 22.5%
* CCNc1cc(Cl)nc2c1ncn2[C@H]1[C@H](O)[C@H](O)[C@]2(C(=O)NC)C[C@H]12 | 103.9%
* Cc1cc(NCC(F)F)c2ncn([C@H]3[C@H](O)[C@H](O)[C@@H]4C[C@@H]43)c2n1 | 33.1%
* CCNc1cc(C)nc2c1ncn2[C@H]1[C@H](O)[C@H](O)[C@@H]2C[C@@H]21 | 6.8%
* O[C@@H]1[C@H](O)[C@@H]2C[C@@H]2[C@H]1n1cnc2c(NCC(F)F)nc(C#CC3CC3)nc21 | 24.7%
* O[C@@H]1[C@H](O)[C@@H]2C[C@@H]2[C@H]1n1cnc2c(NCC(F)F)cc(C3CC3)nc21 | 7.2%
* Cc1cc(COc2ccc(Cl)cc2CNc2cc(Cl)nc3c2ncn3[C@H]2[C@H](O)[C@H](O)[C@@H]3C[C@@H]32)on1 | 1.7%

---

TEST TARGET: UniProt:P0DMS8
METHOD: Intracellular calcium release assay (FLIPR)
Type: cell-based
MEASUREMENT PARAMETERS: percentage of the response to NECA
QUANTITY: Cell Calcium Efficacy (%)

- CCNc1nc(C#CC2CC2)nc2c1ncn2[C@H]1[C@H](O)[C@H](O)[C@@H]2C[C@@H]21: 15.4
- O[C@@H]1[C@H](O)[C@@H]2C[C@@H]2[C@H]1n1cnc2c(NCCF)cc(Cl)nc21: 31.3
- Cc1c(Cl)nc2c(ncn2[C@H]2[C@H](O)[C@H](O)[C@@H]3C[C@@H]32)c1NCC(F)F: 10
- O[C@@H]1[C@H](O)[C@@H]2C[C@@H]2[C@H]1n1cnc2c(NCC(F)F)nc(C3CC3)nc21: 14.2
- CCNc1cc(Cl)nc2c1ncn2[C@H]1[C@H](O)[C@H](O)[C@@H]2C[C@@H]21: 50.3
- O[C@@H]1[C@H](O)[C@@H]2C[C@@H]2[C@H]1n1cnc2c(NCCF)nc(Cl)nc21: 44.9
- Cc1cc(NCc2cc(F)ccc2F)c2ncn([C@H]3[C@H](O)[C@H](O)[C@@H]4C[C@@H]43)c2n1: 12.3
- O[C@@H]1[C@H](O)[C@@H]2C[C@@H]2[C@H]1n1cnc2c(NCC(F)F)cc(Cl)nc21: 55.9
- Cc1cc(NCCF)c2ncn([C@H]3[C@H](O)[C@H](O)[C@@H]4C[C@@H]43)c2n1: 13.1
- CCNc1nc(Cl)nc2c1ncn2[C@H]1[C@H](O)[C@H](O)[C@]2(C(F)F)C[C@H]12: 0.6

---

Below: a set of entries, each annotated with reported Ki.
TEST TARGET: human adenosine A3 receptor (Homo sapiens (Human))
METHOD: Adenosine receptor binding assay ([125I]-AB-MECA competition)
MEASUREMENT PARAMETERS: inhibition of 0.15 nM [125I]-AB-MECA binding, membranes of cells expressing human A3 receptor; read-out: hA3 Ki: Ki
QUANTITY: Ki (nM)

* CCCNc1cc(Cl)nc2c1ncn2[C@H]1[C@H](O)[C@H](O)C2(C(=O)NC)C[C@H]12 (stereo in doubt) | 0.64
* CCNc1cc(C#N)nc2c1ncn2[C@H]1[C@H](O)[C@H](O)[C@]2(C(=O)NC)C[C@H]12 | 0.133
* CNC(=O)C12C[C@@H]1[C@@H](n1cnc3c(NCC4CCC4)cc(Cl)nc31)[C@H](O)[C@@H]2O (stereo in doubt) | 3.49
* CCNC(=O)[C@@]12C[C@@H]1[C@@H](n1cnc3c(NCC)cc(Cl)nc31)[C@H](O)[C@@H]2O | 1.68

Reference for the values: patent US20230416245A1
